- TEST_SYSTEM: Neuronal acetylcholine receptor; alpha4/beta2 (Rattus norvegicus, UniProt P09483+P12390)
- Sequence (P09483 whole entry): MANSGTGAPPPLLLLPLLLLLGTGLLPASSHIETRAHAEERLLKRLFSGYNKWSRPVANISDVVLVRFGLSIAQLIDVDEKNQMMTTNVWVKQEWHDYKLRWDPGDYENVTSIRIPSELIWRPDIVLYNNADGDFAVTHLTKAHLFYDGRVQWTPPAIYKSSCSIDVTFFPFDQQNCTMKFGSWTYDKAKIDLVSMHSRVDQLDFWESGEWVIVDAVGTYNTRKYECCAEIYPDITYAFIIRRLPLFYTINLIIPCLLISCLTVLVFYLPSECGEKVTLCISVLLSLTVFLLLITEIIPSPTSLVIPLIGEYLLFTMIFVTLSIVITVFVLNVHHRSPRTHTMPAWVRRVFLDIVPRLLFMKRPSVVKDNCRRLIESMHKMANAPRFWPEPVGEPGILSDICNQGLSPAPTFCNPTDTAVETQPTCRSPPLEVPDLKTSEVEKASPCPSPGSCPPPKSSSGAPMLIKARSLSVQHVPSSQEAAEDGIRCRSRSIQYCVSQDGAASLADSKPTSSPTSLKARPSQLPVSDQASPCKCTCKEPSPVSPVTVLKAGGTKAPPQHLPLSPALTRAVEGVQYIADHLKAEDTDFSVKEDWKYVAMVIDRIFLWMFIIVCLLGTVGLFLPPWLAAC
- Sequence (P12390 whole entry): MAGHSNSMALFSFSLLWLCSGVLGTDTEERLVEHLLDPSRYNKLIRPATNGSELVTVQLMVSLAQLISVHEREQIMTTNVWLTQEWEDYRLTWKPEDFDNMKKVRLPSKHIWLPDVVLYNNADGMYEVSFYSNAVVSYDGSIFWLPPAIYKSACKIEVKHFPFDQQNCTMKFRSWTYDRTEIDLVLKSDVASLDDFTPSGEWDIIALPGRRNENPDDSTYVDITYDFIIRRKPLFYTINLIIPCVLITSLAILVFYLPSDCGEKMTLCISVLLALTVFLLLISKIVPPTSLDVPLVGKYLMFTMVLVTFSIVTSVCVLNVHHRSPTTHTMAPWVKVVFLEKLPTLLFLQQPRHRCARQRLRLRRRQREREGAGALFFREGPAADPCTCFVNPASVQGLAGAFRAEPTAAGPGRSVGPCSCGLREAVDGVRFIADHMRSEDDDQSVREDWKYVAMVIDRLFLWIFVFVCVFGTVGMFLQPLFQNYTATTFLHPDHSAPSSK
- PROTOCOL_TEXT: Displacement of [3H]epibatidine from Sprague-Dawley rat brain alpha4beta2 nAChR after 90 mins by liquid scintillation counting analysis
ATTRIBUTE_MEASURED: pKi
The quantity pKi is defined as the negative base-10 logarithm of the molar concentration.

# annotated cases, reported pKi shown
// query pKi value for entry O=C(CCc1ccccc1)N1C[C@@H]2CNC[C@@H](C2)C1
7.28

// query pKi value for entry O=c1c(-c2ccncc2)ccc2n1C[C@@H]1CNC[C@H]2C1
8.41

// query pKi value for entry O=C(/C=C/c1ccncc1)N1C[C@@H]2CNC[C@@H](C2)C1
8.99

Consider now this further molecule.
// query pKi value for entry O=C(c1ccc(-c2cccnc2)cc1)N1C[C@@H]2CNC[C@@H](C2)C1
7.60
